experiment: Metabolic stability in human liver microsomes assessed as half life at 1 uM preincubated for 5 mins followed by NADPH addition measured for 5 to 60 mins by LC-MS/MS analysis; type: ADME, Microsome; settings: time 10-65 min
Each entry below carries its recorded half-life at 1 µM.
Answer in min, number only, no unit symbol.

Nc1ncnc2c1ncn2Cc1cc(-c2ccc(F)c(F)c2)ncc1N1CCC[C@](N)(CC(F)F)C1 ... 22.3

Prompt line: Answer with reported half-life at 1 µM of NCCCCCCCCCCCNC(=O)COc1cc(-c2cc(Cn3cnc4c(N)ncnc43)c(N3CCC[C@](N)(CC(F)F)C3)cn2)ccc1F
Response line: 5.37

----------
test: Metabolic stability in human liver microsomes assessed as hepatic extraction ratio at 1 uM preincubated for 5 mins followed by NADPH addition measured for 5 to 60 mins by LC-MS/MS analysis; assay type: ADME, Microsome; details: time 10-65 min, read-out: ERH
Measured Attribute: hepatic extraction ratio at 1 µM
Write the value as a bare number.

NCCCCCCCCCCCNC(=O)COc1cc(-c2cc(Cn3cnc4c(N)ncnc43)c(N3CCC[C@](N)(CC(F)F)C3)cn2)ccc1F ... 0.973

Prompt line: Given the compound Nc1ncnc2c1ncn2Cc1cc(-c2ccc(F)c(F)c2)ncc1N1CCC[C@](N)(CC(F)F)C1 , write its reported hepatic extraction ratio at 1 µM.
Response line: 0.898

----------
test: Metabolic stability in human liver microsomes assessed as hepatic clearance at 1 uM preincubated for 5 mins followed by NADPH addition measured for 5 to 60 mins by LC-MS/MS analysis; assay type: ADME, Microsome; details: time 10-65 min
Measured Attribute: CLhep predicted at 1 µM (L/h/kg)
Answer in L/h/kg, number only, no unit symbol.

NCCCCCCCCCCCNC(=O)COc1cc(-c2cc(Cn3cnc4c(N)ncnc43)c(N3CCC[C@](N)(CC(F)F)C3)cn2)ccc1F ... 1.21

Now consider the entry below.
Prompt line: Quote CLhep predicted at 1 µM reported for Nc1ncnc2c1ncn2Cc1cc(-c2ccc(F)c(F)c2)ncc1N1CCC[C@](N)(CC(F)F)C1 please.
Response line: 1.12
